List of Absorbance at 450nm at 2ug/well values.
target: T1, K280-ac protein fragment (human); test: ELISA on K280-ac coated at 250 ng/well, HRP anti-human IgG
T1 construct: also called mAC
T1 peptide: VQIINK(Ac)KLDLSN
Ends that are not written are not given here.

{"columns": ["BINDER", "Absorbance at 450nm at 2ug/well"],
 "data": [
  ["ADEL-Y01h v03 antibody (antibody, V domains shown, Humanized antibody; It was detected with anti-human IgG; also called Y01h01v03) VH: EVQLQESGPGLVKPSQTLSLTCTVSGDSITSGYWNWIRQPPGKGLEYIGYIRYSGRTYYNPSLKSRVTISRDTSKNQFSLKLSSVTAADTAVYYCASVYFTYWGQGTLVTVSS VL: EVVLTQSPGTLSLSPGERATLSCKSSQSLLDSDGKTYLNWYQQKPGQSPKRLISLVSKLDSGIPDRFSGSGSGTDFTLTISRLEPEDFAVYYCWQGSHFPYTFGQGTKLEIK", 2.06],
  ["ADEL-Y01h v02 antibody (antibody, V domains shown, Humanized antibody; It was detected with anti-human IgG; also called Y01h01v02) VH: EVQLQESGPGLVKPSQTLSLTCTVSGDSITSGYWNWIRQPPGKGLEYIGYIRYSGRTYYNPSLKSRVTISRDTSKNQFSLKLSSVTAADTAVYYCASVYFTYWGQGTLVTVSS VL: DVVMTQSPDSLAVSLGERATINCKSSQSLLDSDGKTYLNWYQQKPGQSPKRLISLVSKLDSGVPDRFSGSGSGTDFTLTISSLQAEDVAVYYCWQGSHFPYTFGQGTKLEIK", 2.08],
  ["ADEL-Y01h v09 antibody (antibody, V domains shown, Humanized antibody; It was detected with anti-human IgG; also called Y01h01v09) VH: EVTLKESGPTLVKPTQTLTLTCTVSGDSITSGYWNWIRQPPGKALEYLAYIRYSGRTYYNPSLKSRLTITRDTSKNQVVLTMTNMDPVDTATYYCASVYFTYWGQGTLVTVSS VL: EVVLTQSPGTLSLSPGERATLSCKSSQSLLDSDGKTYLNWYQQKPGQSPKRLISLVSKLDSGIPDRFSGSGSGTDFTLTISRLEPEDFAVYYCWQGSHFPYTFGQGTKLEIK", 1.69]
]}
